Source of measurements: paper PMC10720262

target: PfCSP full length (Plasmodium falciparum (isolate NF54), UniProt P19597); test: ELISA AUC
Sequence (P19597 20-375): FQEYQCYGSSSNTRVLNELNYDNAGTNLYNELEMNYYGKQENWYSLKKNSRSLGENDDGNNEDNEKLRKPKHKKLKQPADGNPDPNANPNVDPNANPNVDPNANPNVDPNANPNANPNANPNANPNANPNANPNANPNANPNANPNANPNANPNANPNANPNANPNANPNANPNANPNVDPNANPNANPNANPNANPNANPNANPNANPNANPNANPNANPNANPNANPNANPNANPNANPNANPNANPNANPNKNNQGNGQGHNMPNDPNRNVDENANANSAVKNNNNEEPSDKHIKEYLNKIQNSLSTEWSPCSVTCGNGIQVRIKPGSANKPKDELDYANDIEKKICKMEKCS
Test Readout: binding score

Binder | binding score
Ky15.10 (antibody, V domains shown, peptides N-terminally acetylated and C-terminally amidated) VH: QVQLVESGGGVVQPGRSLRLSCAASGFTFSNSGMHWVRQVPGKGLEWVAIIWYDGSNKYYADSVKGRFSVSRDNSENTLYLQMSNLRAEDTAVYYCVRAYFDSENLYDYYGMDVWGQGTTVTVSS VL: DIQMTQSPSTLSASVGDRVTITCRASQSISRWLAWFQKKPGKAPKLLIYTASNLESGVPSRFSGSGSGTEFTLTISSLQPDDFATYYCQQYYNYWTFGQGTKVEVK | 2.17

Consider the record given below.
What does the data say about its binding score? Entry: CL-464181 (antibody, V domains shown, peptides N-terminally acetylated and C-terminally amidated) VH: QVQLVESGGGAVQAGTSLRLSCAASGFSFSYNGMHWVRQGPGKGLEWVAIIWYDGGNKFYADSVKGRFTISRDNSKKMLYLQMNRLRAEDTAVYYCARAWNFADNKYSMDVWGQGTTVTVSA VL: DIQMTQSPSTLSASVGDRVTITCRASQSISCWLAWYQQKPGKAPQLLIYKASSLESGVPSRFSGSGSGTEFTLTISSLQPDDFATYYCQQYYIYWTFGQGTKVDIK
2.4
